test: in vivo; conditions: male, Wistar, rat, plasma, iv, 1 mg/kg
Residues, ends and D or L forms follow the SMILES beside them.
Observation Type: clearance (mL/min/kg)
Report only the number, with the unit mL/min/kg understood.

Asked: What does the data say about its clearance? Entry: CC(=O)N[C@@H](CO)C(=O)N[C@@H](CC(=O)O)C(=O)N[C@@H](CCCCN)C(=O)N1CCC[C@H]1C(N)=O [AcSDKP-NH2, N-acetyl-Ser-Asp-Lys-Pro-NH2] (Ac-SDKP-NH2)
Given back: 8.1

----------
test system: human ACE; test: In vitro degradation in the presence of human ACE; format: in vitro ADME; details: human converting enzyme (human ACE); peptide 100 nM, human converting enzyme 5 mU, pH 7.5; T60 min; without captopril; read-out: percentage of peptide assayed relative to the control
Residues, ends and D or L forms follow the SMILES beside them.
Observation Type: remaining at 1 h, 100 nM (%)
Report only the number, with the unit % understood.

Asked: What does the data say about its remaining at 1 h, 100 nM? Entry: CC(=O)N[C@@H](CO)C(=O)N[C@@H](CC(=O)O)C(=O)N[C@@H](CCCCN)C(=O)N1CCC[C@H]1C(N)=O [AcSDKP-NH2, N-acetyl-Ser-Asp-Lys-Pro-NH2] (Ac-SDKP-NH2)
Given back: 116

Asked: Also CC(=O)N[C@@H](CO)C(=O)N[C@@H](CC(=O)O)C(=O)N[C@@H](CCCCN)C(=O)N1CCC[C@H]1C(=O)O [AcSDKP, N-acetyl-Ser-Asp-Lys-Pro] (Ac-SDKP-OH; C-terminus assumed) , if possible.
Given back: 50

----------
assay: in vivo; conditions: male, Wistar, rat, plasma, iv
Residues, ends and D or L forms follow the SMILES beside them.
Observation Type: level at time molar at 5 h (nM)
Report only the number, with the unit nM understood.

Asked: What does the data say about its level at time molar at 5 h? Entry: CC(=O)N[C@@H](CO)C(=O)N[C@@H](CC(=O)O)C(=O)N[C@@H](CCCCN)C(=O)N1CCC[C@H]1C(=O)O [AcSDKP, N-acetyl-Ser-Asp-Lys-Pro] (Ac-SDKP-OH; C-terminus assumed)
Given back: 11

----------
test: in vivo; conditions: male, Wistar, rat, urine, iv, 1.2 mg/kg
Residues, ends and D or L forms follow the SMILES beside them.
Observation Type: dose excreted (%)
Report only the number, with the unit % understood.

Asked: What does the data say about its dose excreted? Entry: CC(=O)N[C@@H](CO)C(=O)N[C@@H](CC(=O)O)C(=O)N[C@@H](CCCCN)C(=O)N1CCC[C@H]1C(=O)O [AcSDKP, N-acetyl-Ser-Asp-Lys-Pro] (Ac-SDKP-OH; C-terminus assumed)
Given back: 10.1

----------
tested on: human ACE; assay: In vitro degradation in the presence of human ACE; type: in vitro ADME; conditions: human converting enzyme (human ACE), with captopril 10 μM; peptide 100 nM, human converting enzyme 5 mU, pH 7.5; T60 min; + captopril 10 μM; read-out: percentage of peptide assayed relative to the control
Residues, ends and D or L forms follow the SMILES beside them.
Observation Type: remaining at 1 h, 100 nM (%)
Report only the number, with the unit % understood.

Asked: What does the data say about its remaining at 1 h, 100 nM? Entry: CC(=O)N[C@@H](CO)C(=O)N[C@@H](CC(=O)O)C(=O)N[C@@H](CCCCN)C(=O)N1CCC[C@H]1C(N)=O [AcSDKP-NH2, N-acetyl-Ser-Asp-Lys-Pro-NH2] (Ac-SDKP-NH2)
Given back: 78

Asked: Also CC(=O)N[C@@H](CO)C(=O)N[C@@H](CC(=O)O)C(=O)N[C@@H](CCCCN)C(=O)N1CCC[C@H]1C(=O)O [AcSDKP, N-acetyl-Ser-Asp-Lys-Pro] (Ac-SDKP-OH; C-terminus assumed) , if possible.
Given back: 85

----------
test system: ACE (rat lung); construct: incubated with ground rat lung material (at 0.1 mg/ml); from tissue; host or cells: rat lung (ground material); test: In vitro degradation in the presence of rat lung ACE; format: in vitro ADME; settings: ground rat lung material (rat lung ACE); peptide 100 nM, ground rat lung material 0.1 mg/ml, pH 7.5; T240 min; without captopril; read-out: percentage of peptide assayed relative to the control
Residues, ends and D or L forms follow the SMILES beside them.
Observation Type: remaining at 4 h, 100 nM (%)
Report only the number, with the unit % understood.

Asked: What does the data say about its remaining at 4 h, 100 nM? Entry: CC(=O)N[C@@H](CO)C(=O)N[C@@H](CC(=O)O)C(=O)N[C@@H](CCCCN)C(=O)N1CCC[C@H]1C(=O)O [AcSDKP, N-acetyl-Ser-Asp-Lys-Pro] (Ac-SDKP-OH; C-terminus assumed)
Given back: 5

----------
Give measured remaining at 2 h, 100 nM for each item. Keep answers brief.
tested on: human ACE; test: In vitro degradation in the presence of human ACE; format: in vitro ADME; conditions: human converting enzyme (human ACE), with captopril 10 μM; peptide 100 nM, human converting enzyme 5 mU, pH 7.5; T120 min; + captopril 10 μM; read-out: percentage of peptide assayed relative to the control
Residues, ends and D or L forms follow the SMILES beside them.
Report only the number, with the unit % understood.

Asked: What does the data say about its remaining at 2 h, 100 nM? Entry: CC(=O)N[C@@H](CO)C(=O)N[C@@H](CC(=O)O)C(=O)N[C@@H](CCCCN)C(=O)N1CCC[C@H]1C(=O)O [AcSDKP, N-acetyl-Ser-Asp-Lys-Pro] (Ac-SDKP-OH; C-terminus assumed)
Given back: 85

Asked: Also CC(=O)N[C@@H](CO)C(=O)N[C@@H](CC(=O)O)C(=O)N[C@@H](CCCCN)C(=O)N1CCC[C@H]1C(N)=O [AcSDKP-NH2, N-acetyl-Ser-Asp-Lys-Pro-NH2] (Ac-SDKP-NH2) , if possible.
Given back: 95

----------
test: in vivo; conditions: male, Wistar, rat, plasma, iv, 0.82 mg/kg
Residues, ends and D or L forms follow the SMILES beside them.
Observation Type: level at 4 h
Express the reported value numerically, then name its unit.

Asked: What does the data say about its level at 4 h? Entry: CC(=O)N[C@@H](CO)C(=O)N[C@@H](CC(=O)O)C(=O)N[C@@H](CCCCN)C(=O)N1CCC[C@H]1C(N)=O [AcSDKP-NH2, N-acetyl-Ser-Asp-Lys-Pro-NH2] (Ac-SDKP-NH2)
Given back: 3 ng/mL

----------
test: in vivo; settings: male, Wistar, rat, plasma, iv, 1 mg/kg
Residues, ends and D or L forms follow the SMILES beside them.
Observation Type: AUC0-inf (ng·h/mL)
Report only the number, with the unit ng·h/mL understood.

Asked: What does the data say about its AUC0-inf? Entry: CC(=O)N[C@@H](CO)C(=O)N[C@@H](CC(=O)O)C(=O)N[C@@H](CCCCN)C(=O)N1CCC[C@H]1C(N)=O [AcSDKP-NH2, N-acetyl-Ser-Asp-Lys-Pro-NH2] (Ac-SDKP-NH2)
Given back: 1650

----------
experiment: in vivo; conditions: male, Wistar, rat, plasma, iv, 1.2 mg/kg
Residues, ends and D or L forms follow the SMILES beside them.
Observation Type: level at time molar at 0.25 h

Asked: What does the data say about its level at time molar at 0.25 h? Entry: CC(=O)N[C@@H](CO)C(=O)N[C@@H](CC(=O)O)C(=O)N[C@@H](CCCCN)C(=O)N1CCC[C@H]1C(=O)O [AcSDKP, N-acetyl-Ser-Asp-Lys-Pro] (Ac-SDKP-OH; C-terminus assumed)
Given back: 194 nM

----------
assay: in vivo; settings: male, Wistar, rat, plasma, iv
Residues, ends and D or L forms follow the SMILES beside them.
Observation Type: level at 10 min
Express the reported value numerically, then name its unit.

Asked: What does the data say about its level at 10 min? Entry: CC(=O)N[C@@H](CO)C(=O)N[C@@H](CC(=O)O)C(=O)N[C@@H](CCCCN)C(=O)N1CCC[C@H]1C(N)=O [AcSDKP-NH2, N-acetyl-Ser-Asp-Lys-Pro-NH2] (Ac-SDKP-NH2)
Given back: 2680 ng/mL

----------
test: in vivo; conditions: male, Wistar, rat, plasma, iv
Residues, ends and D or L forms follow the SMILES beside them.
Observation Type: level at time molar at 5 min (µM)
Report only the number, with the unit µM understood.

Asked: What does the data say about its level at time molar at 5 min? Entry: CC(=O)N[C@@H](CO)C(=O)N[C@@H](CC(=O)O)C(=O)N[C@@H](CCCCN)C(=O)N1CCC[C@H]1C(=O)O [AcSDKP, N-acetyl-Ser-Asp-Lys-Pro] (Ac-SDKP-OH; C-terminus assumed)
Given back: 5.66

----------
test system: human ACE; test: In vitro degradation in the presence of human ACE; format: in vitro ADME; conditions: human converting enzyme (human ACE); peptide 100 nM, human converting enzyme 5 mU, pH 7.5; T1440 min; without captopril; read-out: percentage of peptide assayed relative to the control
Residues, ends and D or L forms follow the SMILES beside them.
Observation Type: remaining at 24 h, 100 nM (%)
Report only the number, with the unit % understood.

Asked: What does the data say about its remaining at 24 h, 100 nM? Entry: CC(=O)N[C@@H](CO)C(=O)N[C@@H](CC(=O)O)C(=O)N[C@@H](CCCCN)C(=O)N1CCC[C@H]1C(N)=O [AcSDKP-NH2, N-acetyl-Ser-Asp-Lys-Pro-NH2] (Ac-SDKP-NH2)
Given back: 86
